Entries and their sensor-assay potency score (higher = more potent)
# target-desc: KCTD3; note: reference of the scale not given here
# experiment-notes: pooled miR-30 sensor sort-seq; sequence = guide strand
# condition-notes: shRNA
Lab note: record just the number, no unit beside it.

// below: answered sequences
AGGAACAACATCTTGAACCTGC :: -0.641
TATCAATAAATATAGCACCAGT :: -0.952
TAGTTATAGGAACAACATCTTG :: -1.48

Inquiry: Quote sensor-assay potency score (higher = more potent) reported for "TGTAGTACAGTCAACAGCCTGG" please.
Reply text: 0.267

Inquiry: Note down sensor-assay potency score (higher = more potent) recorded for "TTATCTTTCATTCGCAAGGGGA"
Reply text: -0.381

Inquiry: Look up and report measured sensor-assay potency score (higher = more potent) for this entry: "TTGTAGTACAGTCAACAGCCTG"
Reply text: -1.16

Taken from the OligoGym collection.
